- System: mouse B cells
- procedure.details: Mouse B cell proliferation assay
- Type: cell-based
- condition.label: Cellular
measure: pIC50
Recall that pIC50 is obtained by taking minus log10 of the concentration measured in molar.

## Task Please provide the recorded pIC50 for Cc1cc(C(=O)Nc2nc3cccc(Cl)c3n2[C@@H]2CCCCN(C(=O)/C=C/CN(C)C)C2)ccn1 [Compound A] , tested on mouse B cells.
## Result 6.53

====

Target sequence: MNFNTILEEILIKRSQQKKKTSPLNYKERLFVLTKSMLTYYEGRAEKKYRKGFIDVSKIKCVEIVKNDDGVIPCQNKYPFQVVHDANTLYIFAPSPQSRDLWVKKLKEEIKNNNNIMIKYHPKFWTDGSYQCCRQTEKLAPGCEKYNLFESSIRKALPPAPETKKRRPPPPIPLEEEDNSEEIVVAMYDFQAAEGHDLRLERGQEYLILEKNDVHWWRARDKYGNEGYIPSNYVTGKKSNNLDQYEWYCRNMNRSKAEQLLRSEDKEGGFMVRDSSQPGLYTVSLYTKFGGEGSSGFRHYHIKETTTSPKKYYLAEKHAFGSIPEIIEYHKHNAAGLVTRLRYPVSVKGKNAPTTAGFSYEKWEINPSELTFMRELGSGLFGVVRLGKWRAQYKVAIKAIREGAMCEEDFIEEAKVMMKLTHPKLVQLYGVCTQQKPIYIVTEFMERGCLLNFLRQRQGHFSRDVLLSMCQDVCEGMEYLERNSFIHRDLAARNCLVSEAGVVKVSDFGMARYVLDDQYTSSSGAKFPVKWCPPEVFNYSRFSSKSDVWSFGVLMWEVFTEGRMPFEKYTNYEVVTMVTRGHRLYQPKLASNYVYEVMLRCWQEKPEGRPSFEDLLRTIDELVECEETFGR
measure: IC50 (nM)
Provide the reading as a plain figure in nM.

## Task Given the entry Cc1cc(C(=O)Nc2nc3cccc(Cl)c3n2[C@@H]2CCCCN(C(=O)/C=C/CN(C)C)C2)ccn1 , report its measured IC50.
## Result 0.9

The reported measurements were obtained from patent US20180177872A1.
